# measurementTarget: T1, IL-12 (mouse, p35/p40 heterodimer) (Mus musculus, UniProt P43431;P43432 SEQ:23-215,SEQ:23-335)
# T1 sequence 1: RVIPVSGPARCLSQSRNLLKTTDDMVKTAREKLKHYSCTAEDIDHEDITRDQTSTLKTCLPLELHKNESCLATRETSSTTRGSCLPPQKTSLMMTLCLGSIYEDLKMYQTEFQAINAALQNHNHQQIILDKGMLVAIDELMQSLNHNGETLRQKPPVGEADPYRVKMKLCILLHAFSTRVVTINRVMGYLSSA
# T1 sequence 2: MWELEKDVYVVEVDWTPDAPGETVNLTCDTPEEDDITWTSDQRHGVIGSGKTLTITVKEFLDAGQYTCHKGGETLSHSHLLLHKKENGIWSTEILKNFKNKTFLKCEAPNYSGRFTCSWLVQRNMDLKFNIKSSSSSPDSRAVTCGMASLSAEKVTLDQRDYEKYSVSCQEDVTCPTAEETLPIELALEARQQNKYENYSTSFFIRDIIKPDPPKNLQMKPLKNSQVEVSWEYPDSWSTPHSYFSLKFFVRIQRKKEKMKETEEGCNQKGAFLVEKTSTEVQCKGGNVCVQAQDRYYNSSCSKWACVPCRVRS
# testName: filter; 1X PBS, 0.1 mg/mL BSA, 30 min RT
# experimentalContext: label: 32P
metricName: pKd
One number for each entry, as −log10 of the molar value.

Q. Which pKd is listed for AMX369.H1 (ARC1914) (ssRNA, 2'-F all C and U (rRfY)) RNA: GGAGCGCACUCAGCCACCUGGGAAAAUCUGGGUCCCUGAGUUCUAACAGCAGAGAUUUUUCGACCUCUCUGCUAGC ?
A. 6.71
